# Test system: Puccinia graminis f. tritici
# ASSAY_REMARKS: Antifungal activity against Puccinia graminis f. tritici assessed as inhibition of wheat stem rust disease on wheat cultivar Yuma at 25 ppm measured 24 hr post fungal inoculation relative to untreated control
# Format: functional
MEASURED_QUANTITY: inhibition at 25 ppm (%)
Use % as the unit, but write only the number.

C=C1[C@@H]2[C@H](O)C=C(C=O)[C@H](C=O)[C@@]2(C)[C@H](OC(=O)/C=C/c2ccccc2)C[C@@H]1C
8
C=C1[C@@H]2[C@@H](O)C=C(C=O)[C@H](C=O)[C@@]2(C)[C@H](OC(=O)/C=C/c2ccccc2)C[C@@H]1C
15
C=C1[C@@H](C)C[C@@H](OC(=O)/C=C/c2ccccc2)[C@@]2(C)[C@H]1CC=C(CO)[C@@H]2CO
0

Now for the molecule whose inhibition at 25 ppm we want.
Field request: inhibition at 25 ppm | item: C=C1[C@@H](C)C[C@@H](O)[C@]2(C)[C@@H](C=O)C(C=O)=CC[C@@H]12 0
